test system: HCT-15 colon; assay: NCI-60 one-dose screen, 48 h; conditions: 10 µM unless noted
This is part of a sample that, as a whole, favours compounds with a hit. Of some 83,000 tested, about 20% had one in any assay. Calls of active or inactive are those of the source. The calls were made as follows: active = growth percent below 10; inactive = the rest.
Entry note: the call must match one of True = active, False = inactive

Input: Could you please tell me the result logged for `COc1ccc(OC)c(NC(=O)CCCCCCNC(=O)C(O)(O)C(F)(F)F)c1` in this assay?
Output: False

Input: Please state the recorded outcome for this compound: `COc1ccc(N2CCN(C3=C(Cl)C(=O)c4ncccc4C3=O)CC2)cc1`
Output: False

Input: What did the test return for CCCCCCCCCCCC(=O)NC(C)(C)C(=O)N1CCCC1C(=O)NC(C)(C)C(=O)NC(C)(C)C(=O)N1CCCC1C(=O)NC(C)(C)C(=O)NC(C)(C)C(=O)N1CCCC1C(=O)NC(C)C(=O)NCCC(=O)NC(C)C(=O)NC(C)(C)C(=O)NC(C)(C)C(=O)NC(C)(C)C(=O)NCCC(=O)NC(C)(C)C(=O)NC(C)(C)C(=O)NC(C)(C)C(=O)NC(C)C(=O)NCCC(=O)O (configuration not stated) ?
Output: True

Input: Given `Cc1ccc(S(=O)(=O)NCCCNc2nc(Nc3ccc(N4CCN(C)CC4)cc3)nc3ccsc23)cc1` , state the outcome it received in this test.
Output: True

Input: Tell me the assay call for `COc1cc(C(C)=C(c2ccc(OCCN(C)C)cc2)c2ccc(OCCN(C)C)cc2)ccc1F` please.
Output: False

Input: # lookup: test call for `O=C(CCCCCC/C=C\c1csc(Br)n1)NO`
Output: False

Input: So what was the verdict on `CC(C)Sc1nc(-c2ccccc2)c(C#N)c(N2CCOCC2)n1` in this test?
Output: False

----------
test system: TK-10 renal; assay: NCI-60 one-dose screen, 48 h; settings: 10 µM unless noted
Compounds without any hit were thinned out: in the full panel of roughly 83,000, 20% have a hit. Activity calls are given as the source filed them. Rule for the calls: active = growth percent below 10; inactive = the rest.
Write down one outcome, taken from TRUE for active, FALSE for inactive

Input: Returns: the outcome recorded for `C#Cc1nc(/C=C\CCCCCCC(=O)NO)cs1` in this assay.
Output: FALSE

Input: # fetch the recorded call for `Cc1cc(NS(=O)(=O)c2ccc(NC(=O)CSc3nc4ccccc4c(=O)n3-c3ccccc3)cc2)no1` here
Output: FALSE

Input: Which outcome did this test record for the molecule `CCN(CC)c1ccc(/C=N/NC(=O)c2ccc(NS(C)(=O)=O)cc2)c(O)c1` ?
Output: FALSE

Input: Which outcome did this test record for the molecule `O=C(COc1ccc(/C=C2\C(=O)Nc3ccc(Cl)cc32)cc1)Nc1ccc(Cl)cc1` ?
Output: FALSE

Input: Which outcome was assigned to `CN1CCN(c2ccc(Nc3nc(NCCCNS(=O)(=O)c4ccc(Cl)cc4)c4sccc4n3)cc2)CC1` in this test?
Output: TRUE

Input: Please let me know the test result on file for `Oc1[nH]c2ccc(Cl)cc2c1N=Nc1nc(N=Nc2c(O)[nH]c3ccc(Cl)cc23)nc(N2CCOCC2)n1` .
Output: FALSE

Input: # fetch the recorded call for `C=C1CCc2nc(SCC(=O)O)ccc2N1` here
Output: FALSE

Input: What did this assay record as the result for `C#CCOc1cccc(/C(N)=N/C(N)=N/c2nc3ccccc3s2)c1` ?
Output: FALSE

Input: Which result was noted for this molecule in the test: `COc1cc(/C=N\NC(=O)c2ccc3nc(-c4ccc(Br)cc4)[nH]c3c2)cc(OC)c1OC`
Output: FALSE

Input: What did this assay record as the result for `COc1ccc([C@@H]2C(=O)N(c3cc(OC)c(OC)c(OC)c3)[C@H]2c2ccc(OC)c(O)c2)cc1` ?
Output: FALSE

Input: Record request — test call for `COC(=O)c1ccc(NC2=C(Cl)C(=O)C(C)=C(C)C2=O)cc1`
Output: FALSE

Input: Could you kindly confirm the outcome this assay logged for `COc1ccccc1/C=C/C(=O)c1nnn(-c2ccc(F)cc2)c1C` ?
Output: FALSE

Input: Which outcome was entered for the molecule `O=C1[C@@H]2Cc3c([nH]c4ccccc34)[C@@H](c3ccc(Cl)cc3)N2C(=O)CN1C1CCN(Cc2c(F)cccc2F)CC1` in this test?
Output: FALSE

Input: I'd appreciate the recorded outcome for `O=C(/C=C/Nc1ccc(S(=O)(=O)Nc2ncccn2)cc1)c1ccc(N=Cc2c(O)[nH]c3ccccc23)cc1` from this test.
Output: FALSE

Input: Hello, I am checking results. What call was entered for `Cc1cc(C)cc(NC2=C(Cl)C(=O)c3nc(C)ccc3C2=O)c1` ?
Output: FALSE

Input: GET /call?item= `Cc1ccc(S(=O)(=O)NCCCNc2nc(Nc3ccc(N4CCN(C)CC4)cc3)nc3ccsc23)cc1` returns the recorded outcome of this test.
Output: FALSE

Input: Call for entry `O=C1Nc2ccccc2/C1=C/c1ccc(OCC(=O)c2ccccc2)cc1` :
Output: FALSE

Input: Called result for `CC(C)[C@H]1c2[nH]c3ccccc3c2C[C@H]2C(=O)N(CCCCCCC(=O)NO)CC(=O)N12`
Output: FALSE

Input: Tell me the recorded outcome of this test for `Cc1nc(N)sc1-c1csc(Nc2ccc(C(F)(F)F)cc2)n1` .
Output: FALSE

----------
system: MDA-MB-435 melanoma; experiment: NCI-60 one-dose screen, 48 h (100 = growth as untreated, 0 = no growth, -100 = all killed); settings: 10 µM unless noted
Compounds without any hit were thinned out: in the full panel of roughly 83,000, 20% have a hit.
Would you kindly list growth for each of these molecules?
API: value field is a number in %; no unit string.

Input: growth lookup needed for `CCCN1C=C/C(=C\C(=O)n2ccc3ccccc32)c2ccccc21` , thanks.
Output: 93

Input: Requested read-out: growth. Entry: `COc1ccc(C(=NNS(=O)(=O)c2ccc(C)cc2)c2ccccc2)cc1OC`
Output: 106

Input: GET /values?readout=growth&item= `C#C[C@]1(O)CC[C@H]2[C@@H]3CC=C4c5sc(Nc6ccc(C)cn6)nc5CC[C@]4(C)[C@H]3CC[C@@]21C`
Output: -51.8

Input: Look up growth for this molecule: `NS(=O)(=O)c1ccc(Nc2nc(N/N=C/c3ccc4c(c3)OCO4)nc(Nc3ccccc3)n2)cc1`
Output: 59.2

Input: GET /values?readout=growth&item= `O=C(CCCCCCNC(=O)C(O)(O)C(F)(F)F)Nc1ccc(Cl)cc1`
Output: 11.6

Input: Requested field: growth. Item: `O=C(CCCCCCNC(=O)C(O)(O)C(F)(F)F)Nc1ccc(Br)cc1`
Output: 6.63

Input: growth for `Brc1cccc(-c2cc(-c3ccc4c(c3)OC=CO4)[nH]n2)c1` ?
Output: -25.2

Input: # lookup: growth of `CN(C)CCCOc1ccc(C(=C(c2ccccc2)C2CCCC2)c2ccc(OCCCN(C)C)cc2)cc1`
Output: -62.8

Input: Entry NC1C2CCC1CN(c1cnc(C(=O)Nc3cc(F)cc4cccnc34)cn1)C2 (stereo not given) : reported growth = ?
Output: 75.5

Input: For the molecule shown here, `N#Cc1c(-c2cccs2)cc(-c2cnccn2)nc1SCC(=O)N/N=C/c1cccs1` , give the reported growth.
Output: 51

----------
System: SF-268 CNS
Test: NCI-60 one-dose screen, 48 h (100 = growth as untreated, 0 = no growth, -100 = all killed)
Conditions: 10 µM unless noted
Experimental: Cells are grown in 96 well plates and exposed to the test compound for 48 hours. Compounds are tested at a single concentration, which is 10^-5 M for most compounds. The reported endpoint is percent growth (GI% or GIPRCNT), where numbers from 0 - 100% represent growth inhibition, and numbers from -100% - 0 represent cell death. For example, a value of 40 represents 60% growth inhibition. A value of 0 means no net growth occurred over the course of the experiment. […]
The panel holds about 83,000 compounds, 20% with a hit somewhere; the sample as a whole holds those more often.
Sorting guide: entries reporting growth beneath 60% go in the satisfied pile, the rest go in the not satisfied pile.

Input: Lab log: compare recorded growth with 60%; is it strictly lower for `O=C1Nc2ccccc2/C1=C/c1ccc(OCC(=O)c2ccccc2)cc1` ?
Output: not satisfied

Input: In the record for `O=C1/C(=C/C=C/c2ccco2)SC(=S)N1Cc1ccccc1` , is growth less than 60%?
Output: not satisfied

Input: In plain terms, does `FC(F)(F)c1cc(Br)cc(-c2cc(-c3ccc4c(c3)OCCO4)[nH]n2)c1` come in under 60% for growth?
Output: satisfied

Input: Field: below-cutoff. Rule: recorded growth strictly less than 60%. Subject: `CC1(C)CC[C@]2(C(=O)NCCCCCCN(CCCN)CCCN)CC[C@]3(C)C(=CC[C@@H]4[C@@]5(C)CC[C@H](O)C(C)(C)[C@@H]5CC[C@]43C)[C@@H]2C1`
Output: not satisfied

Input: Decide: growth of `N#Cc1c(-c2cccs2)cc(-c2cnccn2)nc1SCC(=O)N/N=C/c1ccncc1` strictly below 60%?
Output: not satisfied

Input: In plain terms, does COc1cccc2c1C=CC1(O2)Oc2cccc(OC)c2C=C1C (centres undefined) come in under 60% for growth?
Output: satisfied

Input: Dear reviewer, please state whether `Fc1cccc(Cl)c1/C=N/Nc1nc(N/N=C/c2c(F)cccc2Cl)nc(N2CCCCC2)n1` has growth strictly beneath 60%.
Output: satisfied

Input: Here's an entry: `Cc1ccc2c(n1)C(=O)C(Cl)=C(Nc1ccc(C(C)C)cc1)C2=O` . Is its growth below 60%?
Output: not satisfied

Input: Quick check: growth of `Cc1ccc(OCc2occc2C(=O)N2CCOCC2)cc1` under 60%?
Output: not satisfied

Input: Does this compound meet the criterion growth < 60%? `Brc1ccc(-c2cc(-c3ccc4c(c3)OCCO4)n[nH]2)s1`
Output: not satisfied

Input: Please check: growth for `O=S(=O)(NCCCNc1nccc(-c2[nH]c(-c3ccccc3)nc2-c2ccc(F)c(O)c2)n1)c1cccc(F)c1` , strictly under 60% or not?
Output: not satisfied

Input: Bench note: check whether CC(Nc1ncnc2ccc(-c3cnc4cnccn34)cc12)c1ccccc1 (centres undefined) shows growth below 60%
Output: not satisfied

Input: Bench note: check whether `Cc1cc(NS(=O)(=O)c2ccc(NC(=O)CSc3nc4ccccc4c(=O)n3-c3ccccc3)cc2)no1` shows growth below 60%
Output: not satisfied

Input: # strict comparison: is reported growth < 60%? input = `CC(=O)OC[C@@]12Oc3c(cccc3-c3ccc(O)c4c3O[C@]3(COC(C)=O)C(=C4O)C(=O)C[C@H](C)[C@@H]3OC(C)=O)C(O)=C1C(=O)C[C@H](C)[C@@H]2OC(C)=O`
Output: satisfied

Input: Please check: growth for `CCOC(=O)c1cccnc1Nc1ccc(NC(=O)Nc2ccc(Cl)c(C(F)(F)F)c2)cc1` , strictly under 60% or not?
Output: not satisfied

Input: I'd appreciate it if you could check whether `Cc1ccc2c(n1)C(=O)C(Cl)=C(Nc1cccc(C)c1C)C2=O` has growth smaller than 60%.
Output: satisfied

Input: For `CC1=C(SCC(=O)OCCCCCC(C)C)C(=O)c2ccccc2C1=O` , is the recorded growth below the cut-off of 60%?
Output: not satisfied

Input: Item `C[C@]12CC[C@H]3[C@@H](CC=C4C[C@@H](O)CC[C@@]43C)[C@@H]1CC[C@@H]2[C@](C)(O)CCc1cccnc1` : growth beneath 60%, strictly?
Output: not satisfied

Input: Answer whether the compound `COc1ccc(CC(C)=C(c2ccc(OCCN3CCCC3)cc2)c2ccc(OCCN3CCCC3)cc2)cc1` has growth strictly less than 60%
Output: satisfied
